Listed here are compounds together with their documented selectivity ratio.
test system: DHFR (human against Plasmodium falciparum DHFR double mutant); test: Selectivity index, ratio of Ki for human DHFR expressed in Escherichia coli BL21 to Ki for Plasmodium falciparum DHFR double mutant expressed in Escherichia coli BL21; format: toxicity; details: read-out: Ratio Ki
Would you mind answering with just the numeric figure?

CC1(C)NC(N)=NC(=N)N1OCCc1ccccc1    21

Exercise: Bench note: what selectivity ratio did CC1(C)N=C(N)N=C(N)N1OCCCc1ccccc1 show?
Key: 30

Exercise: Queued: CC1(C)N=C(N)N=C(N)N1OCCCNc1ccc(Cl)c(Cl)c1
Key: 61

Exercise: Queued: CC1N=C(N)N=C(N)N1OCCCOc1cccc(Cl)c1Cl (stereo unspecified)
Key: 33

Exercise: Next entry: CC1(C)N=C(N)N=C(N)N1OCCCOc1cc(Cl)c(Cl)cc1Cl
Key: 24

Exercise: Now the same for CC1(C)N=C(N)N=C(N)N1OCCCSc1ccc(Cl)cc1
Key: 26
